- test.target: recombinant form of Glutaminase 1 (GAC) (Homo sapiens, UniProt O94925)
- measurement.protocol: Recombinant Enzyme Assay (GAC coupled to GDH, NADH absorbance, no preincubation)
- Assay type: biochemical
- reported.conditions: no preincubation; read-out: GAC Delta N2 IC50 no preinc
experimental.endpoint: IC50 (µM)

Example entries begin here.
{"molecule": "CC(=O)Nc1nnc(CCSCCc2nnc(NC(=O)Cc3ccccc3)s2)s1", "IC50 (µM)": 1.2}
{"molecule": "NS(=O)(=O)c1ccc(CC(=O)Nc2nnc(CCSCCc3nnc(NC(=O)Cc4ccc(S(N)(=O)=O)cc4)s3)s2)cc1", "IC50 (µM)": 0.24}
{"molecule": "Cn1cc(CC(=O)Nc2nnc(CCSCCc3nnc(NC(=O)Cc4cn(C)c5ccccc45)s3)s2)c2ccccc21", "IC50 (µM)": 0.61}

1. O=C(CCN1CCOCC1)OC(C(=O)Nc1nnc(CCCCc2nnc(NC(=O)C(OC(=O)CCN3CCOCC3)c3cccc(Cl)c3)s2)s1)c1cccc(Cl)c1 (stereo not shown)
2. C[C@H](NC(=O)OC(C)(C)C)C(=O)Nc1nnc(CCSCCc2nnc(NC(=O)[C@H](C)NC(=O)OC(C)(C)C)s2)s1
3. COc1ccc(OC)c(CC(=O)Nc2nnc(CCCCc3nnc(NC(=O)Cc4ccccc4)s3)s2)c1
Lookup: Ascending sort, IC50. Provide the labels, sequenced as the question asks.
Found: 3, 1, 2

I. COCOCCOC(C(=O)Nc1nnc(CCCCc2nnc(NC(=O)C(OCCOCOC)c3ccccc3)s2)s1)c1ccccc1 (stereo not shown)
II. CC(C)[C@H](N)C(=O)OCC(C(=O)Nc1nnc(CCCCc2nnc(NC(=O)C(COC(=O)[C@@H](N)C(C)C)c3ccccc3)s2)s1)c1ccccc1 (stereo partly shown)
III. O=C(Cc1ccccc1)Nc1nnc(CCCCc2nnc(NC(=O)OCc3ccccc3)s2)s1
Lookup: Order the records so the highest IC50 appears first and the lowest last. Form entry: ranked labels (order as requested).
Found: I, II, III
(I: 2.8 µM, II: 1.5 µM, III: 0.26 µM)

A. C[C@@H](O)C(=O)Nc1nnc(CCCCc2nnc(NC(=O)Cc3ccccc3)s2)s1
B. CC(C)COC(=O)Nc1nnc(CCCCc2nnc(NC(=O)Cc3ccccc3)s2)s1
Lookup: Field: lower IC50 | Options: A / B # respond with the chosen item's label
Found: B
